Numbers sourced from PubChem BioAssay (NCI).

System: MDA-MB-231 breast
Assay: NCI tumour cell line growth inhibition, 48 h
*1 amine or outer side, *2 acyl side, *3 side chain or, on linkers, in order; H or OH if unused. Where a SMILES comes first, the peptide text is derived from it. Bridges are numbered along the chain shown (N, C = ends). [ ]: non-standard residue; d: D form. The star is where a group is joined. Phe(3,5-F2) = N[C@@H](Cc1cc(F)cc(F)c1)C(=O)O; Pro(4R-Me) = C[C@H]1CN[C@H](C(=O)O)C1; aThr = C[C@H](O)[C@H](N)C(=O)O; Pip = O=C(O)[C@@H]1CCCCN1; X10 = Fc1cc(C2CC2)ccc1N*; CO = O=C([*:1])[*:2]
TGI below 50 µM gives class 0; TGI at or above it gives class 1.

{"COMPOUND": "Cc1ccc2c(C)c3c(ccc4ccccc43)c[n+]2c1", "ANSWER_LABEL": "class 0"}
{"COMPOUND": "CC(=O)NC(Cc1ccc(O)cc1)C(=O)O (stereo unspecified)", "ANSWER_LABEL": "class 1"}
{"COMPOUND": "C[C@@H]1CC[C@]2(C(=O)O)CC[C@]3(C)C(=CC[C@@H]4[C@@]5(C)CC[C@H](O)C(C)(C)[C@@H]5CC[C@]43C)[C@@H]2[C@]1(C)O", "ANSWER_LABEL": "class 0"}
{"COMPOUND": "CCN(CC)N=Nc1c(C(N)=O)n[nH]c1C", "ANSWER_LABEL": "class 1"}
{"COMPOUND": "COc1ccc(CC2c3cc4c(cc3CCN2C)OCO4)c(C=O)c1OC (stereo unspecified)", "ANSWER_LABEL": "class 1"}
{"COMPOUND": "Cc1nc2sccn2c1-c1csc(Nc2ccccc2Cl)n1", "ANSWER_LABEL": "class 0"}
{"COMPOUND": "O=C1C=CC(=O)c2c1ccc1c3ccccc3n(CCCCCCCCCCCCn3c4ccccc4c4ccc5c(c43)C(=O)C=CC5=O)c21", "ANSWER_LABEL": "class 1"}
{"COMPOUND": "O=c1c2cc([N+](=O)[O-])cnc2sn1-c1ccc([N+](=O)[O-])cc1", "ANSWER_LABEL": "class 1"}
{"COMPOUND": "COc1ccc(C2CC(c3c(O)ccc4ccccc34)=NN2C(C)=O)cc1OC (stereo unspecified)", "ANSWER_LABEL": "class 1"}
{"COMPOUND": "C[C@@H](NC(=O)[C@@H]1C[C@]1(C)COC(=O)c1cc([N+](=O)[O-])cc([N+](=O)[O-])c1)c1cccc2ccccc12", "ANSWER_LABEL": "class 1"}
{"COMPOUND": "CC(=O)O[C@@H]1[C@H](C(C)C)[C@@H](OC(C)=O)C/C(C)=C/CC[C@]2(C)O[C@@H]12", "ANSWER_LABEL": "class 1"}
{"COMPOUND": "Cc1ccc(N=NC(=Nc2ccccc2)c2ccc(N(CCC#N)CCC#N)cc2)cc1", "ANSWER_LABEL": "class 1"}
{"COMPOUND": "CC[C@@H]1CC[C@@H]2[C@H](CC[C@]3(C)[C@@H](OC(C)=O)CC[C@@H]23)[C@H]1COC(C)=O", "ANSWER_LABEL": "class 1"}
{"COMPOUND": "C[C@@H]1C[C@H]2C(=O)O[C@@H](C)[C@H](NC(=O)[C@H](Cc3cc(F)cc(F)c3)NC(=O)Nc3ccc(C4CC4)cc3F)C(=O)N3CCC[C@H]3C(=O)N3CCCC[C@H]3C(=O)N[C@@H](C)C(=O)N2C1 ({X10-CO}-[Phe(3,5-F2)][aThr]P[Pip]A[Pro(4R-Me)]; ester 2-C)", "ANSWER_LABEL": "class 0"}
{"COMPOUND": "Fc1ccc(NC(=S)SCc2ccc3c(c2)OCO3)cc1F", "ANSWER_LABEL": "class 1"}
